src = patent US20160375006A1

# Test system: UniProtKB P49840
# Sequence (P49840 whole entry): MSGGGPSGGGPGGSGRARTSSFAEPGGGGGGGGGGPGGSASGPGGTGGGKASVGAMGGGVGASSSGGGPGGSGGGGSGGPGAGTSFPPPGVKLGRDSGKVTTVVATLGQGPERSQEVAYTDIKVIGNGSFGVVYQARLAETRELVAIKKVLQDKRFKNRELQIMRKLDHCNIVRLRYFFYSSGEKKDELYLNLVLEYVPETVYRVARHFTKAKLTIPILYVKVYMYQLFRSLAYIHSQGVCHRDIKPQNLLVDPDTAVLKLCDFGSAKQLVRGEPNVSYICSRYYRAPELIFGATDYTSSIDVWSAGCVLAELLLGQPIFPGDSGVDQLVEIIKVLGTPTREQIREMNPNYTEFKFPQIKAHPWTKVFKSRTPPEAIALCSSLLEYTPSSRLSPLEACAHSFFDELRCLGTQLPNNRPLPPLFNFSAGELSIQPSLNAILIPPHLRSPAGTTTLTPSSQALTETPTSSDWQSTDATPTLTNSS
# Assay protocol: biochemical
pIC50: −log10 of the molar value.
Use y when the recorded pIC50 is no lower than 6; use n when it is lower.

| Compound | Test system | Label class |
| --- | --- | --- |
| CC(C)(C)Cc1[nH]nc2c1[C@]1(CCc3cc(F)ccc31)C1=C(CC(C)(C)CC1=O)N2 (stereo in doubt) | UniProtKB P49840 | n |
| CC(C)(C)Cc1[nH]nc2c1C1(CCc3cc(F)ccc31)C1=C(CC(C)(C)CC1=O)N2 (racemic) | UniProtKB P49840 | y |
| CCc1ccccc1[C@@H]1C2=C(CC(C)(C)CC2=O)Nc2n[nH]c(C(C)C)c21 | UniProtKB P49840 | y |

Record CC1(C)CC(=O)C2=C(C1)Nc1n[nH]c(C3CC(F)(F)C3)c1C21CCCc2ccccc21 (stereo not shown) ; criterion: pIC50 no lower than 6. Met?
y
